# study system: androgen receptor (Rattus norvegicus)
# Construct: from tissue; host or cells: ventral prostate cytosol of gonadectomized male Sprague-Dawley rats
# Sequence (P15207 whole entry S389L): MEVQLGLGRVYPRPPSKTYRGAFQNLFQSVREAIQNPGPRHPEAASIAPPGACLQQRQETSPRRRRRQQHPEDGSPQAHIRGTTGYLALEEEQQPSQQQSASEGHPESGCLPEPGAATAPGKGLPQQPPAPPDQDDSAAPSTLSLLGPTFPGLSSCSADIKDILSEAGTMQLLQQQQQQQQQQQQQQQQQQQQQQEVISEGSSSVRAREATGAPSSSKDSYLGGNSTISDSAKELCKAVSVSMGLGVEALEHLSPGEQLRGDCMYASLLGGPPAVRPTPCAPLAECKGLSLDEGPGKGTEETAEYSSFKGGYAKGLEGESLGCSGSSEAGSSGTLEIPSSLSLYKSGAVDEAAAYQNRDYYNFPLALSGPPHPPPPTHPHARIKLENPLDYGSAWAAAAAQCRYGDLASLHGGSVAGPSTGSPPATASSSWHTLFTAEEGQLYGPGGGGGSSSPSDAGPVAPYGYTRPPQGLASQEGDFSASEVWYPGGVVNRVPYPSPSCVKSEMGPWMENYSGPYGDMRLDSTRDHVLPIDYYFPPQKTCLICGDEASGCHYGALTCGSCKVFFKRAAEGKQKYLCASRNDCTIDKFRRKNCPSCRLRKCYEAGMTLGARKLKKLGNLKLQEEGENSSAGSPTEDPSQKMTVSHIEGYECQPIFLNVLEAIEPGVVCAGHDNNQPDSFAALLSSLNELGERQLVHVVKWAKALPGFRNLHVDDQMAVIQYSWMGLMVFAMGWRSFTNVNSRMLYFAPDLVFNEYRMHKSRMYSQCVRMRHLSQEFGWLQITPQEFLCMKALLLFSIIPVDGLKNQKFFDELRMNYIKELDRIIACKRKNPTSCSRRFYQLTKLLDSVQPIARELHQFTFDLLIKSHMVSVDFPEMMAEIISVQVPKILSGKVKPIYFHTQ
# test summary: Androgen receptor (AR) assay: inhibition of [3H]R1881 binding, prostate cytosol
# condition notes: E^−8
Assignment: determine reported % Inhibition Androgen Receptor for the given molecules.
Give your result in % as a bare value.

Give its % Inhibition Androgen Receptor value. Item: CCCCN(C)C(=O)[C@@]1(OC(C)=O)CCC2C3C=C(C)C4=CC(=O)CC[C@]4(C)C3CC[C@@]21C (stereo partly drawn) [EM-1165]
0

What about CCC(=O)O[C@]1(C(C)=O)CCC2C3C=C(C)C4=CC(=O)C[C@H](C)[C@]4(C)C3CC[C@@]21C (stereo partly drawn) [CS-243] ?
0

What about CCCC(=O)OC1(C(C)=O)CCC2C3C=C(C)C4=CC(=O)CC(C)C4(C)C3CCC21C (stereo not drawn) [CS-245] ?
5

* * *

Assignment: determine reported inhibition at 1 µM for the given molecules.
# study system: androgen receptor (Rattus norvegicus)
# Construct: from tissue; host or cells: ventral prostate cytosol of gonadectomized male Sprague-Dawley rats
# test summary: Androgen receptor (AR) assay: inhibition of [3H]R1881 binding, prostate cytosol
# condition notes: Table 4′; E^−6
Give your result in % as a bare value.

Give its inhibition at 1 µM value. Item: COCCOc1cc2c(cc1C(=O)OC)C1CC[C@@]3(C)C(CC[C@@]34CCC(C)(C)C(=O)O4)C1CC2 (some centres unmarked)
0

What about COc1c(Br)cc2c(c1Br)CCC1C2CCC2(C)C1CCC21CCC(C)(C)C(=O)O1 (centres unmarked) ?
0

What about C[C@]12CCC3c4cc([N+](=O)[O-])c(O)cc4CCC3C1CC[C@@]21CCCC(=O)O1 (some centres unmarked) ?
7

What about CC1(C)CCC2(CCC3C4CCc5cc(O)c([N+](=O)[O-])cc5C4CCC32C)OC1=O (centres unmarked) ?
1

What about COc1ccc2c(c1)C(=O)CC1C3CCC4(CCC(C)(C)C(=O)O4)C3(C)CCC21O (centres unmarked) ?
0

* * *

Assignment: determine reported % Inhibition Estrogen Receptor E^−6 for the given compounds.
# study system: estrogen receptor (Rattus norvegicus)
# Construct: from tissue; host or cells: uterine cytosol of gonadectomized female Sprague-Dawley rats
# Sequence (P06211 whole entry): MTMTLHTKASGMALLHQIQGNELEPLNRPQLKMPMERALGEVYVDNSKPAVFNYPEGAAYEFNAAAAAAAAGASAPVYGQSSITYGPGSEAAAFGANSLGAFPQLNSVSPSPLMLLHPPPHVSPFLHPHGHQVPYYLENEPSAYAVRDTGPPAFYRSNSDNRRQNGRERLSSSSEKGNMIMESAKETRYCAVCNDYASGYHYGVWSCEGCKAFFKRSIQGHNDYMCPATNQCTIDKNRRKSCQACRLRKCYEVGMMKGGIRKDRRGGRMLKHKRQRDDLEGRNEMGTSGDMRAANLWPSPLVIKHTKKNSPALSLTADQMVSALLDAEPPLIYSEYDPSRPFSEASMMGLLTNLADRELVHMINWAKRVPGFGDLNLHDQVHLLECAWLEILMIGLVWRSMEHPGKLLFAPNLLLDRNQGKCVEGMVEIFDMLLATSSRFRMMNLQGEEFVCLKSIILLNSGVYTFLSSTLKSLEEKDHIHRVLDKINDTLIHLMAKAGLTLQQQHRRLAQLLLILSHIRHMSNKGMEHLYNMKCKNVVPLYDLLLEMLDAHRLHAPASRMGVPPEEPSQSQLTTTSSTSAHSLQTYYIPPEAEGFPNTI
# test summary: Estrogen receptor (ER) assay: inhibition of [3H]E2 binding, uterine cytosol
# condition notes: Table 4′; E^−6
Give your result in % as a bare value.

# query: % Inhibition Estrogen Receptor E^−6 | item COc1c(Br)cc2c(c1Br)CCC1C2CCC2(C)C1CCC21CCC(C)(C)C(=O)O1 (centres unmarked) | system: estrogen receptor (Rattus norvegicus)
4

What about C[C@]12CCC3c4cc([N+](=O)[O-])c(O)cc4CCC3C1CC[C@@]21CCCC(=O)O1 (some centres unmarked) ?
0

What about COCCOc1ccc2c(c1)C(=O)CC1C2CCC2(C)C1CCC21CCC(C)(C)C(=O)O1 (centres unmarked) ?
6

What about COCCOc1cc2c(cc1C(F)(F)F)[C@H]1CC[C@@]3(C)[C@@H](CC[C@@]34CCC(C)(C)C(=O)O4)[C@@H]1CC2 ?
0

What about CC1(C)CCC2(CCC3C4CCc5c(cc(Cl)c(O)c5Cl)C4CCC32C)OC1=O (centres unmarked) ?
0

What about COCCOc1cc2c(cc1C#N)C1CC[C@@]3(C)C(CC[C@@]34CCC(C)(C)C(=O)O4)C1CC2 (some centres unmarked) ?
2

What about COc1ccc2c(c1)CCC1C2CCC2(C)C1CCC21CCC(C)(C)C(=O)O1 (centres unmarked) ?
2

What about CC1(C)CCC2(CCC3C4CCc5cc(O)c([N+](=O)[O-])cc5C4CCC32C)OC1=O (centres unmarked) ?
2

* * *

# test summary: In vivo assay of oral bioavailability (plasma AUC 0-7 h by LCMS/MS)
# Set-up: species or system male Sprague Dawley rats
# condition notes: male, Sprague-Dawley [Crl:CD(SD)Br], 0.5 mg; Table 4′; oral, rat plasma
metric: AUC(0-t) (ng·h/mL)
Give your result in ng·h/mL as a bare value.

Give its AUC(0-t) value. Item: CC1(C)CC[C@@]2(CCC3C4CCc5cc(C(N)=O)ccc5C4CCC32C)OC1=O (stereo partly shown) [EM-1404]
3840

What about COc1c(Br)cc2c(c1Br)CCC1C2CCC2(C)C1CCC21CCC(C)(C)C(=O)O1 (stereo not shown) [EM-1385-CS] ?
301

What about CC1(C)CCC2(CCC3C4CCc5ccccc5C4CCC32C)OC1=O (stereo not shown) [CS-224] ?
18

What about CC1(C)CCC2(CCC3C4CCc5cc(OCCN6CCCCC6)ccc5C4CCC32C)OC1=O (stereo not shown) [EM-1390-CS] ?
401

* * *

Assignment: determine reported IC50 for the given compounds.
# study system: human type 5 17β-hydroxysteroid dehydrogenase (Homo sapiens)
# Construct: screen again a human placental λgt11 cDNA to get the full length cDNA clone; expressed in transfected cells; host or cells: human embryonal kidney 293 cells (pCMV / pCMV-neo vector)
# Sequence (P42330 1-323): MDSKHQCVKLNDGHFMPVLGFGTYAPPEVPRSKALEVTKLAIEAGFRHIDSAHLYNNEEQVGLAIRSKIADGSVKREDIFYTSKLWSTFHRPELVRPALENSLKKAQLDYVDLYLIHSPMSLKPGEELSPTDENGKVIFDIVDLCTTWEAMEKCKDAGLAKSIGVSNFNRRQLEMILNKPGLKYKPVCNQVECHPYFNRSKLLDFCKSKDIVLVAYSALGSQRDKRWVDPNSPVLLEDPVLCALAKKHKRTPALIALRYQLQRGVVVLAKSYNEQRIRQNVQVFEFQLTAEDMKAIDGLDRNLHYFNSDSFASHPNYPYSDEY
# test summary: Inhibition of human type 5 17β-HSD activity in transfected 293 cells
# Assay type: cell-based
# condition notes: Table 4′; read-out: Inhibition Type V 17β-HSD IC50
Give your result in µM as a bare value.

# query: IC50 | item COc1cc2c(cc1C)C1CCC3(C)C(CCC34CCC(C)(C)C(=O)O4)C1CC2 (stereo not drawn) [EM-1412-CS] | system: human type 5 17β-hydroxysteroid dehydrogenase (Homo sapiens)
0.054

What about CN(C)CCOc1ccc2c(c1)CCC1C2CCC2(C)C1CCC21CCC(C)(C)C(=O)O1 (stereo not drawn) [EM-1389-CS] ?
0.025

What about CC1(C)CCC2(CCC3C4CCc5c(cc(Cl)c(O)c5Cl)C4CCC32C)OC1=O (stereo not drawn) [EM-1391-CS] ?
0.019

What about CC1(C)CCC2(CCC3C4CCc5cc(O)c([N+](=O)[O-])cc5C4CCC32C)OC1=O (stereo not drawn) [EM-1125-CS] ?
0.002

What about COCCOc1cc2c(cc1F)C1CCC3(C)C(CCC34CCC(C)(C)C(=O)O4)C1CC2 (stereo not drawn) [EM-1393-CS] ?
0.016

What about C[C@]12CCC3c4cc([N+](=O)[O-])c(O)cc4CCC3C1CC[C@@]21CCCC(=O)O1 (stereo partly drawn) [EM-1124] ?
0.003

* * *

# study system: glucocorticoid receptor (Rattus norvegicus, UniProt P06536)
# Construct: from tissue; host or cells: liver cytosol of male Sprague-Dawley rats
# Sequence (P06536 1-795): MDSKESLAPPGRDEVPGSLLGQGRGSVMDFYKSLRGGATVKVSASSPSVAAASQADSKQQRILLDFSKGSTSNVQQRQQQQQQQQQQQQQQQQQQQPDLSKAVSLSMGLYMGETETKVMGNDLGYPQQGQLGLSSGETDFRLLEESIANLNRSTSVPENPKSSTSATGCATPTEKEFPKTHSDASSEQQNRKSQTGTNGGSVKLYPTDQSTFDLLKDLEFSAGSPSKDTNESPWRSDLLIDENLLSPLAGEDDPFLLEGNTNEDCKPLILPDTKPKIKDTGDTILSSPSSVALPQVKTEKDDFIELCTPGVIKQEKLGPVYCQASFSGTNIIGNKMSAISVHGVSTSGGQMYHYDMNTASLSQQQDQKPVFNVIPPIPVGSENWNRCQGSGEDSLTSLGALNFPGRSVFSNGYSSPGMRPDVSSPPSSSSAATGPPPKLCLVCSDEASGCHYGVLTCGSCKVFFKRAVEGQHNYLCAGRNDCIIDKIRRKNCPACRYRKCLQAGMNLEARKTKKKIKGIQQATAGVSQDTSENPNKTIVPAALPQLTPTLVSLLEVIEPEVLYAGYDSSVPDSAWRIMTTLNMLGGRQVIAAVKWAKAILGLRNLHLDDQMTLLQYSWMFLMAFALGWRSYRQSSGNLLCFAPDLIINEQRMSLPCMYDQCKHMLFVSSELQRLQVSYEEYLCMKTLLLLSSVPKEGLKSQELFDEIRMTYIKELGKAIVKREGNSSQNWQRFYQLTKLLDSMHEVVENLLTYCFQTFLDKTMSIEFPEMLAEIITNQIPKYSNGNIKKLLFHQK
# test summary: Glucocorticoid receptor assay: inhibition of [3H]-dexamethasone binding, liver cytosol
# condition notes: Table 4′; E^−8; read-out: % Inhibition Glucocorticold Receptor E^−8
Assignment: determine reported inhibition at 0.01 µM for the given molecules.
Don't forget the unit after the number, please.

# query: inhibition at 0.01 µM | item C[C@]12CCC3c4cc([N+](=O)[O-])c(O)cc4CCC3C1CC[C@@]21CCCC(=O)O1 (some centres unmarked) | system: glucocorticoid receptor (Rattus norvegicus, UniProt P06536)
1%

What about COc1cc2c(cc1C)C1CCC3(C)C(CCC34CCC(C)(C)C(=O)O4)C1CC2 (centres unmarked) ?
0%

What about CN(C)C(=O)c1ccc2c(c1)CCC1C2CCC2(C)C1CCC21CCC(C)(C)C(=O)O1 (centres unmarked) ?
0%

What about CC12CCC3c4ccc(F)cc4CCC3C1CCC21CCCC(=O)O1 (centres unmarked) ?
4%

What about CC1(C)CCC2(CCC3C4CCc5ccccc5C4CCC32C)OC1=O (centres unmarked) ?
1%

What about CCS(=O)(=O)Oc1ccc2c(c1)CCC1C2CCC2(C)C1CCC21CCC(C)(C)C(=O)O1 (centres unmarked) ?
0%

What about CC1(C)CC[C@@]2(CCC3C4CCc5cc(C(=O)O)ccc5C4CC[C@@]32C)OC1=O (some centres unmarked) ?
4%

What about CC1CCC2(CCC3C4CCc5cc(O)c([N+](=O)[O-])cc5C4CCC32C)OC1=O (centres unmarked) ?
0%

This collection of values is drawn from patent US6541463B1.
